Recorded log10 of Kb for the following compounds
Target: isolated rat artery (thoracic aorta) (Rattus norvegicus, UniProt P34978)
Construct: the thoracic aorta was quickly removed; from tissue; host or cells: thoracic aorta rings of male Wistar rats, endothelium 'gently cleaned'
Sequence (P34978 1-341): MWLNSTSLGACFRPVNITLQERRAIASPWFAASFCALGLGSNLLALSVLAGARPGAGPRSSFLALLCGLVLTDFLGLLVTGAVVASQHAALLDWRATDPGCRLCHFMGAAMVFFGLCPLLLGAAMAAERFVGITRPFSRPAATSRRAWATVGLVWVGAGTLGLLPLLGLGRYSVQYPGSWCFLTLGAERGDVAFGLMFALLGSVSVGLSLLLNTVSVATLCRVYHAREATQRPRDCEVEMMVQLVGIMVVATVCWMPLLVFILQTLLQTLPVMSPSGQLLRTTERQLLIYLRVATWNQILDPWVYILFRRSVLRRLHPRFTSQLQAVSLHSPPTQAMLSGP
Assay: Inhibitory activity of vasoconstriction of isolated rat artery
Format: cell-based
Conditions: pA2; rat thoracic aorta ring preparation, 37° C.; read-out: B: Inhibitory activity of vasoconstriction (rat artery) (pA2) (converted)
Quick note: numbers are log10 of Kb, with nM as the unit.

O=C(O)c1ccc(NC(=O)[C@H](COC2CCCCO2)NS(=O)(=O)c2ccc(Cl)cc2)cc1 (stereo partly drawn)
1.10

Just so you know, measured log10 of Kb for O=C(O)Cc1ccc(NC(=O)C(COC2CCCCO2)NS(=O)(=O)c2ccc(Br)cc2)cc1 (racemic) came out at 0.77

Just so you know, measured log10 of Kb for O=C(O)c1ccc(NC(=O)C(COC2CCCCO2)NS(=O)(=O)c2ccc(Cl)cc2)cc1 (racemic) came out at 1.46

Just so you know, measured log10 of Kb for O=C(O)CCc1ccc(NC(=O)C(COC2CCCCO2)NS(=O)(=O)c2ccc(Cl)cc2)cc1 (racemic) came out at 1.11

Just so you know, measured log10 of Kb for O=C(O)COc1ccc(CCNS(=O)(=O)c2ccc(Cl)cc2)cc1 [Control Compound, reference compound] came out at 2.10

Just so you know, measured log10 of Kb for O=C(O)Cc1ccc(NC(=O)C(COC2CCCCO2)NS(=O)(=O)c2ccc(I)cc2)cc1 (racemic) came out at 0.58

Just so you know, measured log10 of Kb for O=C(O)Cc1ccc(NC(=O)C(COC2CCCCO2)NS(=O)(=O)c2ccc(Cl)cc2)cc1 (racemic) came out at 0.84

Just so you know, measured log10 of Kb for O=C(O)c1cccc(NC(=O)[C@H](COC2CCCCO2)NS(=O)(=O)c2ccc(Cl)cc2)c1 (stereo partly drawn) came out at 1.62

Just so you know, measured log10 of Kb for O=C(O)c1cccc(NC(=O)C(COC2CCCCO2)NS(=O)(=O)c2ccc(Cl)cc2)c1 (racemic) came out at 1.51
